Reference source: PubChem BioAssay (NCATS)

Assay: Quantitative highthroughput screen to assess conditional lethalithy of SEM cells grown in RPMI1640 with dialyzed fetal bovine serum (RPMI+ds) (AID 1963884); note: nearly all actives have a fitted effect of over 35% in size;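 for viability: 100% = DMSO control wells and 0% = empty wells without cells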
Conditions: SEM B-ALL cells, RPMI+dialyzed FBS, CellTiter-Glo viability, 48 h; series mostly up to 45.8 µM
Results filed as inconclusive are left out. Active and inactive are the calls of the source. Calls come from the whole dose curve; as a rule, active = well fitted cell-killing curve with a large enough effect; inconclusive = small, poorly fitted or top-dose-only effect, or effect the other way; inactive = no such curve, though single readings can be large or run the other way.
Select the matching outcome among 1.0 (active), 0.0 (inactive)

Worked examples follow.
Could you please tell me the result logged for COc1ccc(CC2=NN3C([C@@H](CCc4ccccc4)[C@@H](C)O)=NC(C)C3C(=O)N2)cc1OC (some centres undefined) in this assay?
0.0

Could you please tell me the result logged for CN1CCCN(C(=O)c2cccc(-c3ccc(C=C4C(=O)Nc5ccc(Cl)cc54)o3)c2)CC1 in this assay?
1.0

Could you please tell me the result logged for CC(=O)OC1C(C)OC(Oc2c(-c3ccc(O)cc3)oc3cc(O)cc(O)c3c2=O)C(O)C1OC(C)=O (centres undefined) in this assay?
0.0

Could you please tell me the result logged for COC(=O)Nc1nc2ccc(Sc3ccccc3)cc2[nH]1 in this assay?
1.0

Could you please tell me the result logged for CC(=NNC(=S)N1CCC1)c1ccccn1 in this assay?
1.0

Could you please tell me the result logged for CCOC(=O)[C@H](CCc1ccccc1)N[C@H]1CS[C@H](c2cccs2)CN(CC(=O)O)C1=O in this assay?
0.0

Could you please tell me the result logged for CCC(=O)NCC[C@@H]1CCc2ccc3c(c21)CCO3 in this assay?
1.0

Could you please tell me the result logged for O=C(O)CCNC(=O)c1ccc(N=Nc2ccc(O)c(C(=O)O)c2)cc1 in this assay?
0.0

Next:
Could you please tell me the result logged for C[C@]12CCC3=C4CCC(=O)C=C4CC[C@@H]3[C@H]1CC[C@@]2(O)CC#N in this assay?
0.0

Could you please tell me the result logged for Cc1ccc(CN2CCNCC2)cc1NC(=O)CNc1ccc(F)c(F)c1 in this assay?
0.0

Could you please tell me the result logged for CC(N)C12CC3CC(CC(C3)C1)C2 (centres undefined) in this assay?
0.0

Could you please tell me the result logged for Nc1ccn([C@@H]2O[C@H](CO)[C@H](O)C2(F)F)c(=O)n1 in this assay?
1.0

Could you please tell me the result logged for CCCCc1ccc2nc(NC(=O)OC)[nH]c2c1 in this assay?
1.0

Could you please tell me the result logged for COC(=O)C1=C(C)NC(C)=C(C(=O)OCCCN2CCC(c3ccccc3)(c3ccccc3)CC2)C1c1cccc([N+](=O)[O-])c1 (centres undefined) in this assay?
0.0

----------
Experiment: Quantitative highthroughput screen to assess conditional lethalithy of SEM cells grown in RPMI1640 with unreated serum (RPMI+s) (AID 1963883); note: nearly all actives have a fitted effect of over 35% in size;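 for viability: 100% = DMSO wells and 0% = empty wells without cells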
Settings: SEM B-ALL cells, CellTiter-Glo viability, 48 h; series mostly up to 45.8 µM
Inconclusive results are not listed. Activity calls are given as the source filed them. Calls follow the shape of the dose curve; as a rule, active = well fitted cell-killing curve with a large enough effect; inconclusive = small, poorly fitted or top-dose-only effect, or effect the other way; inactive = no such curve, though single readings can be large or run the other way.
Select the matching outcome among T for active, F for inactive

Could you please tell me the result logged for CCN1CCN(CC(=O)Nc2ccc(-c3cccc4c(=O)cc(N5CCOCC5)oc34)c3sc4ccccc4c23)CC1 in this assay?
T

Next:
Could you please tell me the result logged for CC(C)(CO)[C@@H](O)C(=O)NCCC(=O)O in this assay?
F

Could you please tell me the result logged for COc1cccc(Nc2c(C(N)=O)cnc3c(C)cc(S(=O)(=O)c4cccc(C(=O)N(C)C)c4)cc23)c1 in this assay?
F

Could you please tell me the result logged for O=C(Nc1ccccc1)Nc1ccc(-c2ccc(C(=O)[C@H]3CCC[C@H]3C(=O)O)cc2)cc1 in this assay?
F

Could you please tell me the result logged for Cn1c(=O)n(-c2ccc(C(C)(C)C#N)cc2)c2c3cc(-c4cnc5ccccc5c4)ccc3ncc21 in this assay?
T

Could you please tell me the result logged for CC[C@H]1CN2CCc3cc(OC)c(OC)cc3[C@H]2C[C@@H]1C[C@@H]1NCCc2cc(OC)c(OC)cc21 in this assay?
T

----------
Assay: Quantitative highthroughput screen to assess conditional lethalithy of SEM cells grown in RPMI1640 with unreated serum (RPMI+s) (AID 1963883); note: nearly all actives have a fitted effect of over 35% in size;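 for viability: 100% = DMSO wells and 0% = empty wells without cells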
Conditions: SEM B-ALL cells, CellTiter-Glo viability, 48 h; series mostly up to 45.8 µM
Records with an inconclusive call do not appear. Activity calls are given as the source filed them. Calls follow the shape of the dose curve; as a rule, active = well fitted cell-killing curve with a large enough effect; inconclusive = small, poorly fitted or top-dose-only effect, or effect the other way; inactive = no such curve, though single readings can be large or run the other way. Peptide text beside a SMILES is read from it. * marks the point of attachment. Cbz = O=C(OCc1ccccc1)*
Select the matching outcome among 1 (yes) (active), 0 (no) (inactive)

Could you please tell me the result logged for CC(C)C[C@@H](C=O)NC(=O)[C@H](CC(C)C)NC(=O)[C@H](CC(C)C)NC(=O)OCc1ccccc1 (Cbz-Leu-Leu-Leu-aldehyde) in this assay?
1 (yes)

Could you please tell me the result logged for C[C@H](Cn1cnc2c(N)ncnc21)OCP(=O)(O)O in this assay?
0 (no)

Could you please tell me the result logged for CCCCCCCCCC(=O)N[C@@H](Cc1c[nH]c2ccccc12)C(=O)N[C@H](CC(N)=O)C(=O)N[C@@H](CC(=O)O)C(=O)N[C@@H]1C(=O)NCC(=O)N[C@@H](CCCN)C(=O)N[C@@H](CC(=O)O)C(=O)N[C@H](C)C(=O)N[C@@H](CC(=O)O)C(=O)NCC(=O)N[C@H](CO)C(=O)N[C@@H]([C@@H](C)CC(=O)O)C(=O)N[C@@H](CC(=O)c2ccccc2N)C(=O)O[C@@H]1C in this assay?
0 (no)

Could you please tell me the result logged for CC(C)NCC(O)COc1ccc(CCOCC2CC2)cc1 (configuration not stated) in this assay?
0 (no)

----------
Test: Viability qHTS for spleen associated tyrosine kinase inhibitor (SYKi) drug resistant MV4-11 cells (AID 1963824); note: nearly all actives have a fitted effect of over 35% in size
Conditions: SYKi-resistant MV4-11 viability, CellTiter-Glo, 72 h; series mostly up to 45 µM
Inconclusive results are not listed. Calls of active or inactive are those of the source. Calls come from the whole dose curve; as a rule, active = well fitted cell-killing curve with a large enough effect; inconclusive = small, poorly fitted or top-dose-only effect, or effect the other way; inactive = no such curve, though single readings can be large or run the other way.
Select the matching outcome among active, inactive

Worked examples follow.
Could you please tell me the result logged for CCCCc1ccc(C(=O)Nc2cc(-c3ccc(Cl)cc3)nn2-c2ccc(Cl)cc2)cc1 in this assay?
inactive

Could you please tell me the result logged for C/C=C(/C)C(=O)O[C@H]1[C@H](OC(=O)/C(C)=C\C)[C@@]23C(CC1(C)C)[C@]1(CCC4[C@@]5(C)CC[C@H](O[C@@H]6O[C@H](C(=O)O)[C@@H](O)[C@H](O[C@@H]7O[C@H](CO)[C@H](O)[C@H](O)[C@H]7O[C@@H]7O[C@@H](C)[C@H](O)[C@@H](O)[C@H]7O[C@@H]7OC[C@@H](O)[C@H](O)[C@H]7O)[C@H]6O[C@@H]6O[C@H](CO)[C@H](O)[C@H](O)[C@H]6O)C(C)(C)C5CC[C@@]4(C)[C@]1(C)C[C@H]2O)O[C@H]3O (stereo not given in full) in this assay?
active

Could you please tell me the result logged for CC(C)CCC[C@@H](C)[C@H]1CC[C@H]2[C@@H]3CC=C4C[C@@H](OC(=O)NCCN(C)C)CC[C@]4(C)[C@H]3CC[C@]12C in this assay?
active

Next:
Could you please tell me the result logged for Clc1cccc(-c2nnnn2Cc2cccnc2)c1Cl in this assay?
inactive

Could you please tell me the result logged for CO[C@@]1(NC(=O)C(C(=O)O)c2ccc(O)cc2)C(=O)N2C(C(=O)O)=C(CSc3nnnn3C)CO[C@@H]21 (stereo not given in full) in this assay?
inactive

Could you please tell me the result logged for CN(C)C(=O)c1cc2cnc(Nc3ccc(N4CCNCC4)cn3)nc2n1C1CCCC1 in this assay?
active

----------
Test: Viability qHTS for spleen associated tyrosine kinase inhibitor (SYKi) drug resistant MV4-11 cells (AID 1963824); note: nearly all actives have a fitted effect of over 35% in size
Conditions: SYKi-resistant MV4-11 viability, CellTiter-Glo, 72 h; series mostly up to 45 µM
Procedure: Department of Medicine, Hematology/Oncology University Hospital Frankfurt, Germany. Trials have shown promising clinical activity of the selective SYK inhibitor entospletinib in patients with high expressing HOXA9/MEIS1 acute leukemias. […] 7; Detection; Luminescence; ViewLux plate reader (PerkinElmer). […] 1. Quantitative high-throughput screening (qHTS) of small molecule compounds was conducted on drug resistant SYKi MV4-11 cell line. […] 7. Luminescence was measured on a ViewLux plate reader (PerkinElmer).
Inconclusive results are not listed. Calls of active or inactive are those of the source. Calls come from the whole dose curve; as a rule, active = well fitted cell-killing curve with a large enough effect; inconclusive = small, poorly fitted or top-dose-only effect, or effect the other way; inactive = no such curve, though single readings can be large or run the other way.
Select the matching outcome among class 1 = active, class 0 = inactive

Could you please tell me the result logged for COc1ccc2c3c1O[C@H]1C[C@@H](O)C=C[C@@]31CCN(C)C2 in this assay?
class 0

Could you please tell me the result logged for C=C1C(O)CC2C(C(=O)O)=COC(OC3OC(CO)C(O)C(O)C3OC(=O)/C=C\c3ccc(O)cc3)C12 (stereo not given) in this assay?
class 0

Next:
Could you please tell me the result logged for Cc1ccc(Nc2cc(-c3cccc(N4C(=O)c5ccccc5C4=O)c3)ncn2)cc1NS(C)(=O)=O in this assay?
class 1

Could you please tell me the result logged for C=CC1(C)C=C2C(=O)CC3C(C)(C)CCCC3(C(=O)O)C2(O)CC1 (stereo not given) in this assay?
class 0

Could you please tell me the result logged for O=C(/C=C/c1ccc(O)cc1)OC[C@H]1O[C@@H](OC(=O)/C=C/c2ccccc2)[C@H](O)[C@@H](O)[C@@H]1O in this assay?
class 0

Could you please tell me the result logged for S=P(N1CC1)(N1CC1)N1CC1 in this assay?
class 1

Could you please tell me the result logged for Cc1noc(NS(=O)(=O)c2ccc(N)cc2)c1C in this assay?
class 0
